# Test system: Shionogi mouse mammary carcinoma cells
# Run description: Androgenic/antiandrogenic activity on DHT-stimulated Shionogi cell growth
# Format: cell-based
# Settings: Mus musculus, read-out: Shionogi Antiandrogenic activity IC50 (nM), inhibition of DHT-stimulated Shionogi cell number
Quick list: log10(IC50) per entry.
Answers are given as log10 of IC50 in nM.

CCCC(NC(CC)CC)c1cccc(OCC[C@]23CCC4C5CCC(=O)C=C5C[C@@H](C)C4C2CC[C@]3(C)O)c1 (mixture of isomers) ... -0.02
CCC(NC1CCOCC1)c1cccc(OCC[C@]23CCC4C(CCC5CC(F)=CC[C@@]54C)C2CCC3O)c1 (stereo partly shown) ... 1.57
CCCN(Cc1cccc(OCC[C@]23CCC4C(CCC5CC(=O)CC[C@@]54C)C2CC[C@@H]3O)c1)C1CCCC1 (stereo partly shown) ... 0.74
CCC(CC)N(C)C(CC)c1cccc(OCC[C@]23CCC4C5CCC(=O)C=C5CCC4C2CC[C@@H]3O)c1 (stereo partly shown) ... 0.08
CO[C@H]1CCC2C3CCC4CC(=NO)CC[C@]4(C)C3CC[C@@]21CCOc1cccc(C(C)NC2CCCCC2)c1 (stereo partly shown) ... 0.93
CCC(CC)N(C)C(CC)c1cccc(OCC[C@]23CCC4C5CCC(=O)C=C5C[C@@H](C)C4C2CC[C@]3(C)O)c1 (mixture of isomers) ... -0.04

Here is another molecule to look at.
Query: What value of measured log10(IC50) is listed for CCC(NC1CCOCC1)c1cncc(OCC[C@]23CCC4C(CCC5CC(=O)CC[C@@]54C)C2CCC3O)c1 (stereo partly shown) ?
Response: 0.00

* * *

# Target or test system: Human Androgen Receptor (Homo sapiens)
# Sequence (P10275 whole entry): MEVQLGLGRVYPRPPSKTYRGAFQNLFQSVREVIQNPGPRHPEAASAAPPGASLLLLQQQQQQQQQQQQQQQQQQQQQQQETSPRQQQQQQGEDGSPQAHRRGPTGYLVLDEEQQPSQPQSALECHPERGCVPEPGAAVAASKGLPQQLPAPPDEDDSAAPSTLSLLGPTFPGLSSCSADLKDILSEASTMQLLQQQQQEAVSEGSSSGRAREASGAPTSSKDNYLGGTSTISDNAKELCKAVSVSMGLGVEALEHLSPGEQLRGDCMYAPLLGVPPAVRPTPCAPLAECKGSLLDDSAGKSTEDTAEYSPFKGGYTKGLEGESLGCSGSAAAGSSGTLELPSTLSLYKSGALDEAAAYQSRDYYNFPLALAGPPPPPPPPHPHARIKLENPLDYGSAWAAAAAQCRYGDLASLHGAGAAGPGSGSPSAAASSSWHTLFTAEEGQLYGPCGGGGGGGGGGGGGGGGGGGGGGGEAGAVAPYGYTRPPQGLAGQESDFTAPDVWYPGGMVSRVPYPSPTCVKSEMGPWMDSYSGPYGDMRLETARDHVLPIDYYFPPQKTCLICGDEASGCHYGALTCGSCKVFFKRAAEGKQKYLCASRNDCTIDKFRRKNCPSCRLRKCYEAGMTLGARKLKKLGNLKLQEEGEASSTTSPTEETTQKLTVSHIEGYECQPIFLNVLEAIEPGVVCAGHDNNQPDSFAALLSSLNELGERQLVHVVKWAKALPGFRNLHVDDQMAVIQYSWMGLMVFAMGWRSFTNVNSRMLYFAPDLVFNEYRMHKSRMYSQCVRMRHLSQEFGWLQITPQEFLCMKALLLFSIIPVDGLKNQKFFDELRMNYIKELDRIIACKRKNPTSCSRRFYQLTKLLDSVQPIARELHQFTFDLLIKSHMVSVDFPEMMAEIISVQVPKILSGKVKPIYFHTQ
# Run description: Androgen receptor binding assay (hydroxylapatite, [3H]R1881, cytosol of transfected HEK-293 cells)
# Settings: % RBA=100×IC50 R1881/IC50 compound, transfected cells
Readout kind: Androgen Receptor Binding (%) Human RBA R1881 = 100
Your answer should be a plain number; it is taken to be in %.

Below are worked cases with known answers.
CC[C@H](NC1CCCCC1)c1cccc(OCC[C@]23CCC4C(CCC5CC(=O)CC[C@@]54C)C2CCC3O)c1 (stereo partly shown) [EM-7055] ... 242
CCC(CC)N(C)C(CC)c1cccc(OCC[C@]23CCC4=C5CCC(=O)C=C5CCC4C2CC[C@@H]3O)c1 (mixture of isomers) [EM-6860] ... 33
CCCCC(NC1CCCCC1)c1cccc(OCC[C@]23CCC4C(CCC5CC(=O)CC[C@@]54C)C2CCC3=O)c1 (stereo partly shown) [EM-6894] ... 129.7

Query: Given the molecule CN(Cc1cccc(OCC[C@]23CCC4C(CCC5CC(=O)CC[C@@]54C)C2CC[C@@H]3O)c1)C1CCCCCCC1 (stereo partly shown) [EM-6424] , what is its reported Androgen Receptor Binding (%) Human RBA R1881 = 100?
Response: 136

* * *

Form field: inhibition in vivo at 0.5 mg (one value per entry).
# Tested on: rat prostate
# Run description: Systemic antiandrogenic activity, orchidectomized immature male rats with DHT implant: prostate weight
# Type: in vivo
# Settings: Rattus norvegicus, sc, 168 h, read-out: IN VIVO Rat s.c. (+DHT) Prostate % inhibition, s.c., 0.5 mg/animal once daily for 7 days, +DHT
Write it as a number; the unit % goes unstated.

Example entries begin here.
CCC(CC)N(C)C(CC)c1cccc(OCC[C@]23CCC4C5CCC(=O)C=C5CCC4C2CC[C@@H]3O)c1 (some centres unmarked) ... 0
CC(NC1CCCC1)c1cccc(OCC[C@]23CCC4C5CCC(=O)C=C5C[C@H](C)C4C2CC[C@@]3(C)O)c1 (stereo in doubt) ... 28
CCC(Cc1cccc(OCC[C@]23CCC4C5CCC(=O)C=C5CCC4C2CC[C@@H]3O)c1)NC1CCCC1 (some centres unmarked) ... 0
CCCC(NC(CC)CC)c1cccc(OCC[C@]23CCC4C5CCC(=O)C=C5C[C@@H](C)C4C2CC[C@@H]3O)c1 (mixture of isomers) ... 41
C[C@@H]1CC2=CC(=O)CCC2C2CC[C@@]3(CCOc4cccc(C[S+]([O-])c5ccccc5)c4)C(CC[C@]3(C)O)C21 (mixture of isomers) ... 0
CCC(NC1CCCCC1)c1cccc(OCC[C@]23CCC4C(CCC5=CC(=O)CC[C@@]54C)C2CC[C@@H]3O)c1 (some centres unmarked) ... 20
CCC(CC)N(C)C(CC)c1cccc(OCC[C@]23CCC4=C5CCC(=O)C=C5CCC4C2CC[C@@H]3O)c1 (mixture of isomers) ... 12
CCC(CC)N(C)C(CC)c1cccc(OCC[C@]23CCC4C5CCC(=O)C=C5CCC4C2CC[C@]3(C)O)c1 (some centres unmarked) ... 2
CCC(NC1CCCC1)c1cc(F)cc(OCC[C@]23CCC4C(CCC5CC(=O)CC[C@@]54C)C2CC[C@@H]3O)c1 (some centres unmarked) ... 33
CCC(NC1CCCC1)c1cccc(OCC[C@]23CCC4C5CCC(=O)C=C5C[C@@H](C)C4C2CC[C@]3(C)O)c1 (mixture of isomers) ... 34

Query: Find the recorded inhibition in vivo at 0.5 mg belonging to CCCC(NC(C)C)c1cccc(OCC[C@]23CCC4C(CCC5=CC(=O)CC[C@@]54C)C2CC[C@]3(C)O)c1 (mixture of isomers) and report it.
Response: 32

Query: Record request: inhibition in vivo at 0.5 mg value, item CCC(NC1CCCC1)c1cccc(OCC[C@]23CCC4C5CCC(=O)C=C5C[C@@H](C)C4C2CC[C@@H]3O)c1 (mixture of isomers)
Response: 15

Query: Fill in: inhibition in vivo at 0.5 mg of CCC(CC)NC(CC)c1cc(OCC[C@]23CCC4C(CCC5=CC(=O)CC[C@@]54C)C2CC[C@@H]3O)ccn1 (some centres unmarked) is ___
Response: 27

Query: Name the recorded inhibition in vivo at 0.5 mg for CC(NC1CCCCC1)c1cccc(OCC[C@]23CCC4C(CCC5C/C(=N\O)CC[C@@]54C)C2CC[C@@H]3O)c1 (some centres unmarked) .
Response: 21

* * *

# System: Shionogi mouse mammary carcinoma cells
# Run description: Androgenic/antiandrogenic activity on DHT-stimulated Shionogi cell growth
# Format: cell-based
# Settings: read-out: Shionogi Antiandrogenic activity IC50; inhibition of DHT-stimulated Shionogi cell number
pIC50: −log10 of the molar value.
Threshold rule: pIC50 greater than or equal to 9 is satisfied; below that, not satisfied.

Field: example entries. Status: answers known.
CC(C)CCN1CCCCC1c1cccc(OCC[C@]23CCC4C(CCC5CC(=O)CC[C@@]54C)C2CC[C@@H]3O)c1 (stereo partly drawn) [EM-6492] ... not satisfied
CCC[C@H](NC(CC)CC)c1cccc(OCC[C@]23CCC4C(CCC5CC(=O)CC[C@@]54C)C2CC[C@@H]3O)c1.Cl (stereo partly drawn) [EM-6557] ... satisfied
CCCC(NC(CC)CC)c1cccc(OCC[C@]23CCC4C(CCC5=CC(=O)CC[C@@]54C)C2CC[C@@H]3O)c1 (stereo partly drawn) [EM-6928] ... satisfied
CCC(CC)NCc1ccc(C#N)c(OCC[C@]23CCC4C(CCC5CC(=O)CC[C@@]54C)C2CC[C@@H]3O)c1 (stereo partly drawn) [EM-6495] ... not satisfied

Query: Reported pIC50 reaches at least 9 for CCC(CC)NC(CC)c1cccc(OCC[C@]23CCC4C(CCC5C/C(=N/O)CC[C@@]54C)C2CC[C@@H]3OC)c1 (stereo partly drawn) [EM-6544] ?
Response: not satisfied

Query: Evaluate CC(C)CNCc1cccc(OCC[C@]23CCC4C(CCC5CC(=O)CC[C@@]54C)C2CC[C@@H]3O)c1 (stereo partly drawn) [EM-6307] : pIC50 at minimum 9?
Response: not satisfied

Query: Check the entry CCCC(NC(CC)CC)c1cccc(OCC[C@]23CCC4C(CCC5=CC(=O)CC[C@@]54C)C2CC[C@@H]3O)c1 (stereo partly drawn) [EM-6841] : does pIC50 equal or exceed 9?
Response: satisfied

Query: Check if pIC50 >= 9 (inclusive). Item: CCC(CC)NC(CC)c1cccc(OCC[C@]23CCC4C(CCC5CC(=O)CC[C@@]54C)C2CC[C@@H]3O)c1 (stereo partly drawn) [EM-6339]
Response: not satisfied

Query: Quick check: does CCC(NC1CCCC1)c1cccc(OCC[C@]23CCC4C(CCC5CC(=O)CC[C@@]54C)C2CC[C@@H]3O)c1 (stereo partly drawn) [EM-6537] have pIC50 greater than or equal to 9?
Response: satisfied

* * *

# Test system: rat prostate
# Run description: Systemic antiandrogenic activity, orchidectomized immature male rats with DHT implant: prostate weight
# Type: in vivo
# Settings: Rattus norvegicus, sc, 168 h, read-out: IN VIVO Rat s.c. (+DHT) Prostate % inhibition, s.c., 0.5 mg/animal once daily for 7 days, +DHT
Label T when inhibition in vivo at 0.5 mg is at or above 30%; otherwise label F.

These recorded examples may help you get a feel for the data.
CCC(NC(C)C)c1cccc(OCC[C@]23CCC4C(CCC5=CC(=O)CC[C@@]54C)C2CC[C@]3(C)O)c1 (stereo partly shown) ... F
CCCC(NC(CC)CC)c1cccc(OCC[C@]23CCC4C5CCC(=O)C=C5C(C)(C)CC4C2CC[C@]3(C)O)c1 (mixture of isomers) ... F
CCC(CC)NC(CN(C)C)c1cccc(OCC[C@]23CCC4C(CCC5CC(=O)CC[C@@]54C)C2CC[C@@H]3O)c1 (stereo partly shown) ... T
C[C@]1(O)CCC2C3CCC4=CC(=O)CCC4C3CC[C@@]21CCOc1cccc(CN2CCCCC2)c1 (stereo partly shown) ... F
CCCC(NC(CC)CC)c1cccc(OCC[C@]23CCC4C5CCC(=O)C=C5C[C@@H](C)C4C2CC[C@]3(C)O)c1 (mixture of isomers) ... T

Query: Tell me whether inhibition in vivo at 0.5 mg is at least 30% here: CCC(CC)N(C)C(CC)c1cccc(OCC[C@]23CCC4C5CCC(=O)C=C5C[C@@H](C)C4C2CC[C@]3(C)O)c1 (mixture of isomers)
Response: F

Query: Kindly determine if inhibition in vivo at 0.5 mg recorded for CCCC(NC1CCCC1)c1cccc(OCC[C@]23CCC4C5CCC(=O)C=C5C[C@H](C)C4C2CC[C@]3(C)O)c1 (stereo partly shown) is above or exactly 30%.
Response: T
